- Measurement target: DNA repair and recombination protein RAD54-like (Homo sapiens, UniProt Q92698)
- Sequence (Q92698 whole entry): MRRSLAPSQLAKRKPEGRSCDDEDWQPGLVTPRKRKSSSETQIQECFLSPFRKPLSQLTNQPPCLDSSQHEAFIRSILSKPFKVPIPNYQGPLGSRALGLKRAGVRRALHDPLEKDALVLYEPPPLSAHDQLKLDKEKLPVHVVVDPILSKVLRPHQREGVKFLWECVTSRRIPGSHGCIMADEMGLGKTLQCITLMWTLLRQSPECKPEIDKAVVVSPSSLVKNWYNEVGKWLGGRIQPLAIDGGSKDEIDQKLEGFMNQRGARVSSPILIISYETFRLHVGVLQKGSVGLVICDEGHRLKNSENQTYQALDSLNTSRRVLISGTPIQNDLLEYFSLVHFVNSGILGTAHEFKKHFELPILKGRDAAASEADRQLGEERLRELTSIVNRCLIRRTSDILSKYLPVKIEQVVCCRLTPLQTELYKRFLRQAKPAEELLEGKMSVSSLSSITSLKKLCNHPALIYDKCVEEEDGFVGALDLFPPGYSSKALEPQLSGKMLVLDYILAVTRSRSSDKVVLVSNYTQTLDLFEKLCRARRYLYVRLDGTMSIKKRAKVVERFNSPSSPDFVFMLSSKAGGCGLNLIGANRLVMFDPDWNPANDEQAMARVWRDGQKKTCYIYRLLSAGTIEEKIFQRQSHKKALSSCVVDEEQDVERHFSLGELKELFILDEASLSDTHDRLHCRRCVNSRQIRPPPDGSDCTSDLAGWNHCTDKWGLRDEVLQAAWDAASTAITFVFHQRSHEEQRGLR
- Method summary: RAD54 Holliday junction migration blockers – biochemical, fluorescence, cherry-picked samples, dose series, confirmation (AID 651657)
- Format: functional
Active and inactive are the calls of the source.

# Molecule, AC50
measured = [
    ("CCN(CC)CC(O)c1ccc2ccc3ccc(O)cc3c2c1 (configuration not stated)", "23.3 µM (active)"),
    ("CCN1CCN(CCCNC(=O)c2cc3cc4ccc(OC)cc4nc3o2)CC1", "26.5 µM (active)"),
    ("CCCN1CCN(C(S)=Nc2ccc3nc(N4CCN(CC)CC4)cc(C)c3c2)CC1", "82.8 µM (active)"),
    ("CCCCN(CC)CCN=C(S)Nc1ccc2nc(N3CCN(C)CC3)cc(C)c2c1", "22.5 µM (active)"),
    ("COc1ccc2cc3cc(C(=O)NCCCN4CCC(C)CC4)oc3nc2c1", "29.2 µM (active)"),
    ("CN(C)CCN(C(=O)CN1C(=O)c2ccccc2C1=O)c1nc2cc3c(cc2s1)OCO3", "41.5 µM (active)"),
    ("Cc1cc(N2CCN(C)CC2)nc2ccc(NC(S)=NCCN3CCc4ccccc4C3)cc12", "20.4 µM (active)"),
]

* * *

- Method summary: HEK-293T viability loss after treatment – luminescence, T-cell screen hits, cytotoxicity control for TCR NF-kB inhibitor project, dose response (AID 489026);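 also: cells exposed to compound about 14 hours before the viability readout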
- Assay type: functional, cell-based
The source made the active and inactive calls. *1 amine or outer side, *2 acyl side, *3 side chain or, on linkers, in order; H or OH if unused. Where a SMILES comes first, the peptide text is derived from it. [ ]: non-standard residue; d: D form. X2 = CCC[C@@H](N[*:1])[C@H](C)C(=O)O[C@H](C(=O)[*:2])[C@@H](C)CC; X1 = CC(N[*:1])C(=O)C(C)(C)C(=O)[*:2]; NMeY = CN[C@@H](Cc1ccc(O)cc1)C(=O)O; NMeL = CN[C@@H](CC(C)C)C(=O)O; NMeV = CN[C@H](C(=O)O)C(C)C; NMeA = CN[C@@H](C)C(=O)O
Outcome codes: T = active, F = inactive

# Molecule, Discrete label
records = [
    ("Cc1ccc2c(c1)Oc1ccc(NC(=O)CCl)cc1C(=O)N2", "T"),
    ("CCC[C@H]1NC(=O)[C@H](C)N(C)C(=O)C(C)(C)C(=O)C(C)NC(=O)[C@H](Cc2ccc(OC)cc2)N(C)C(=O)[C@H](C(C)C)N(C)C(=O)CNC(=O)[C@H](CC(C)C)N(C)C(=O)CNC(=O)[C@H]([C@@H](C)CC)OC(=O)[C@H]1C (stereo not given in full) (cyclo(G[NMeL]G[NMeV][NMeY](Me)[X1][NMeA][X2]))", "F"),
    ("COC(=O)c1[nH]c2c(c1C)C(=O)CC(c1cccc(OC)c1)C2 (stereo not given)", "F"),
    ("CC(=O)Nc1ccc(S(=O)(=O)N2CCSc3ccccc32)cc1", "F"),
    ("CCCN(CCC)C1=CC(=[N+]2CCCC2)CC(C)(C)C1", "F"),
]

Reference source for all entries: ChEMBL document CHEMBL1201862
